target: CYP3A4 (Homo sapiens, UniProt P08684); assay: Inhibition of human microsomal CYP3A4 expressed in baculovirus infected insect cells at 10 uM using luciferin-IPA as substrate preincubated with enzyme/substrate mixture for 30 mins followed by further incubation with NADPH for 30 mins by CYP450 luciferase Glo assay relative to control; format: ADME; conditions: probe luciferin-IPA
Sequence (P08684 whole entry): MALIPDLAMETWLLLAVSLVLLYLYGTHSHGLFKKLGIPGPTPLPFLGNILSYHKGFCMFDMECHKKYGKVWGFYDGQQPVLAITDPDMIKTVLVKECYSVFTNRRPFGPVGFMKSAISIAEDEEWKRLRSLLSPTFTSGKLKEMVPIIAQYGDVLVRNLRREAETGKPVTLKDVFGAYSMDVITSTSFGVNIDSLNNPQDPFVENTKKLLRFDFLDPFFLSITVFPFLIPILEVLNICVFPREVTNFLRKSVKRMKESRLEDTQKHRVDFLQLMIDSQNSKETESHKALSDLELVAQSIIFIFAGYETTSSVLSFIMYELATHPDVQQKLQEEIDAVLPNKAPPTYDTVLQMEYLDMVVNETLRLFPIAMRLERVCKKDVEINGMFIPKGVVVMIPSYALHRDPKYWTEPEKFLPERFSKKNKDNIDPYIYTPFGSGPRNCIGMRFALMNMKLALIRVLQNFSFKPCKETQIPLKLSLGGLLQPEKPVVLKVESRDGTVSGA
Measured inhibition at 0.5 h, 10 µM values are reported for all entries that follow.
The reply should be a number in %, with the unit left off.

Worked set:
- Molecule Smiles: "COc1ccc2c(=O)c(O)c(-c3csc4ccccc34)oc2c1"
  inhibition at 0.5 h, 10 µM / %: 5.81
- Molecule Smiles: "CCCOc1c(-c2csc3ccccc23)oc2ccc(OC)cc2c1=O"
  inhibition at 0.5 h, 10 µM / %: 48.2
- Molecule Smiles: "O=c1c(O)c(-c2csc3ccccc23)oc2cc(F)ccc12"
  inhibition at 0.5 h, 10 µM / %: 9.54
- Molecule Smiles: "CCOc1ccc2c(=O)c(O)c(-c3csc4ccccc34)oc2c1"
  inhibition at 0.5 h, 10 µM / %: 11.5
- Molecule Smiles: "CCOc1c(-c2csc3ccccc23)oc2ccc(OC)cc2c1=O"
  inhibition at 0.5 h, 10 µM / %: 46.9

input: Form field: reported inhibition at 0.5 h, 10 µM of `COc1ccc2oc(-c3ccco3)c(O)c(=O)c2c1`
output: 14.1

input: Form field: reported inhibition at 0.5 h, 10 µM of `COc1ccc2oc(-c3ccc4ncccc4c3)c(O)c(=O)c2c1`
output: -3.86

input: Form field: reported inhibition at 0.5 h, 10 µM of `O=c1c(O)c(-c2csc3ccccc23)oc2ccc(Cl)cc12`
output: 1.36

Entry source: ChEMBL document CHEMBL4311972
